// provenance: the supplement of paper PMC4862054

Provide the reported normalised response of each item.
System: CAL-51
Assay: normalised response (% of control), CellTox Green; higher = less cell death (100 = DMSO, 0 = benzethonium chloride kill control)
Details: incubation time: 72 h
Give bare numbers, in %.

# COMPOUND, UNITS OF MEASURE, normalised response
records = [
    ("Nc1ncn([C@H]2C[C@H](O)[C@@H](CO)O2)c(=O)n1 [Decitabine] (1000 nM)", "%", 77.8),
    ("C=CC(=O)Nc1cc2c(Nc3ccc(F)c(Cl)c3)ncnc2cc1OCCCN1CCOCC1 [Canertinib] (1000 nM)", "%", 93.2),
    ("N#Cc1ccc(C(c2ccc(C#N)cc2)n2cncn2)cc1 [Letrozole] (10000 nM)", "%", 116),
]

Provide reported normalised response for each item, in the same order as listed.
1. Nc1nc2[nH]cc(CCc3ccc(C(=O)N[C@@H](CCC(=O)O)C(=O)O)cc3)c2c(=O)[nH]1 [Pemetrexed] (1000 nM)
2. COc1cc2nccc(Oc3ccc(NC(=O)Nc4cc(C)on4)c(Cl)c3)c2cc1OC [Tivozanib] (100 nM)
3. C=CC(=O)Nc1cc2c(Nc3ccc(F)c(Cl)c3)ncnc2cc1OCCCN1CCOCC1 [Canertinib] (100 nM)

1: 98.2; 2: 108; 3: 98.2

----------
Provide the reported normalised response of each item.
Tested on: HDQ-P1
Assay: normalised response (% of control), CellTiter-Glo; higher = more viable cells (100 = DMSO, 0 = benzethonium chloride kill control)
Details: incubation time: 72 h
Numbers only, in %.

# COMPOUND, normalised response (%)
records = [
    ("O=C(O)C(=O)O.[NH-][C@@H]1CCCC[C@H]1[NH-].[Pt+2] [Oxaliplatin] (10000 nM)", 102),
    ("CCc1cncnc1N1CCN(Cc2nc3ccc(C(F)(F)F)cc3[nH]2)CC1 (10000 nM)", 102),
    ("COc1cc([C@@H]2c3cc4c(cc3[C@@H](O[C@@H]3O[C@@H]5CO[C@@H](c6cccs6)O[C@H]5[C@H](O)[C@H]3O)[C@H]3COC(=O)[C@H]23)OCO4)cc(OC)c1O [Teniposide] (10000 nM)", 34.3),
    ("CC[C@@H]1C(=O)N(C)c2cnc(Nc3ccc(C(=O)NC4CCN(C)CC4)cc3OC)nc2N1C1CCCC1 [BI 2536] (1000 nM)", 66.6),
    ("Oc1ncc(N(CCCl)CCCl)c(O)n1 [Uracil mustard] (10000 nM)", 98.1),
    ("Nc1nc2[nH]cc(CCc3ccc(C(=O)N[C@@H](CCC(=O)O)C(=O)O)cc3)c2c(=O)[nH]1 [Pemetrexed] (10000 nM)", 82.7),
]

Provide reported normalised response for each item, in the same order as listed.
1. CC1=C(/C=C/C(C)=C/C=C/C(C)=C/C(=O)O)C(C)(C)CCC1 [Tretinoin] (10000 nM)
2. COc1cc2nccc(Oc3ccc(NC(=O)Nc4cc(C)on4)c(Cl)c3)c2cc1OC [Tivozanib] (10000 nM)
3. O=C(O)C1(C(=O)O)CCC1.[NH2-].[NH2-].[Pt+2] [Carboplatin] (10000 nM)
4. CNC(=O)c1cc(Oc2ccc(NC(=O)Nc3cc(C(C)(C)C)nn3-c3ccc4ncccc4c3)c(F)c2)ccn1 [Rebastinib] (1000 nM)
5. CCN(CC)CCCC(C)Nc1c2ccc(Cl)cc2nc2ccc(OC)cc12 (configuration not stated) [Mepacrine] (50000 nM)

1. 90
2. 62.2
3. 101
4. 95.7
5. 101

For the record O=C(O)CCCCC(CCSCc1ccccc1)SCc1ccccc1 (configuration not stated) [CPI-613] (10000 nM) , what value of normalised response is listed for HDQ-P1?
106
